experiment: Inhibition of HPV E6 protein interaction with MAGI-1 PDZ domain1 (unknown origin)
Attribute measured: pIC50
Lab note: report pIC50 as minus log10 of the concentration in molar units, number only.

Request: Sample CCc1cccc2c(C(c3ccccc3OCC(=O)O)c3c[nH]c4c(CC)cccc34)c[nH]c12 — what was its pIC50?
Response: 4.06

====

assay: Inhibition of HPV E6 protein interaction with PSD95 PDZ domain2 (unknown origin)
pIC50: −log10 of the molar value.
Attribute measured: pIC50

Request: Sample CCc1cccc2c(C(c3ccccc3OCC(=O)O)c3c[nH]c4c(CC)cccc34)c[nH]c12 — what was its pIC50?
Response: < 3.60

====

assay: Cytotoxicity against HPV negative human C33A assessed as cell viability at 60 uM treated 24 hrs post plating by WST-1 assay relative to control; parameters: species or system C-33-A; conditions: C33A cells (HPV negative), read-out: Activity
Attribute measured: viability at 24 h, 60 µM (%)
# output: bare number, implied unit %

Request: Sample CCc1cccc2c(C(c3ccccc3OCC(=O)O)c3c[nH]c4c(CC)cccc34)c[nH]c12 — what was its viability at 24 h, 60 µM?
Response: 104
